method_summary: Phase I study: whole blood and plasma pharmacokinetics of GBT440 (LC-MS-MS)
Assay type: in vivo, human
conditions: human, whole blood, oral, healthy subjects
Protocol: The following example presents a Phase I randomised, placebo-controlled, double-blind, single and multiple ascending dose study of the tolerability and pharmacokinetics of Compound 1 (GBT440) in healthy subjects and patients with Sickle Cell Disease. […] Analysis of whole blood was performed as follows. […] The resultant reconstituted extract was analyzed by liquid chromatography mass spectrometry (LCMS). […] RBC:Plasma ratio was calculated using the equation below. […]
experimental_endpoint: half-life

1) CC(C)n1nccc1-c1ncccc1COc1cccc(O)c1C=O | ~72 h

====

method_summary: Phase I study: whole blood and plasma pharmacokinetics of GBT440 (LC-MS-MS)
Type: in vivo, human
conditions: human, whole blood, oral, SCD subjects
Description: The following example presents a Phase I randomised, placebo-controlled, double-blind, single and multiple ascending dose study of the tolerability and pharmacokinetics of Compound 1 (GBT440) in healthy subjects and patients with Sickle Cell Disease. […] Analysis of whole blood was performed as follows. […] The resultant reconstituted extract was analyzed by liquid chromatography mass spectrometry (LCMS). […] RBC:Plasma ratio was calculated using the equation below. […]
experimental_endpoint: half-life

1) CC(C)n1nccc1-c1ncccc1COc1cccc(O)c1C=O [Compound 1] | ~38.4 h
